B1: RAB40B (parent)
chain: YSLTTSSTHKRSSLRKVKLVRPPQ

# Variants of: B1
# measurement-description: protein stability index of a GFP-peptide fusion (GPS, HEK-293T) (PSI 1-6); higher = more stable;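 note: lentivirally expressed fusions sorted by FACS into six bins by GFP to DsRed ratio, PSI derived from sequencing read proportions per bin multiplied by bin number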
# assay-setup: c terminus: a fixed tail appended
readout-kind: protein stability index

Data request: Value lookup for protein stability index; key = YSLTTSSTHKRSSLRKVKLVRPGQ [P23G]
Data returned: 2.69

Data request: Try the variant YSLTTSSTHKRSSLRKVKLVRPDQ [P23D]
Data returned: 3.2

Data request: Subsequent entry: YSLTTSSTHKRRSLRKVKLVRPPQ [S12R]
Data returned: 3.32

Data request: Same question for YSLTTSSTHKRSSLRKVKLVRFPQ [P22F] please.
Data returned: 2.44

Data request: Check YSMTTSSTHKRSSLRKVKLVRPPQ [L3M] too.
Data returned: 2.97

Data request: And YSLTTSSTHKRSSLRKVKLVLPPQ [R21L] ?
Data returned: 3.61

Data request: Would you mind doing YSLTTTSTHKRSSLRKVKLVRPPQ [S6T] as well?
Data returned: 3.29

Data request: Try YSLTTMSTHKRSSLRKVKLVRPPQ [S6M] next.
Data returned: 2.62

Data request: What do you get for YALTTSSTHKRSSLRKVKLVRPPQ [S2A] ?
Data returned: 2.44

Data request: Param item: YSLTTSSTHKRSSLRKSKLVRPPQ [V17S]
Data returned: 3.3

Data request: # iterate: YSLTTSSTHDRSSLRKVKLVRPPQ [K10D]
Data returned: 3.23

Data request: Entry YSLTTSSTHKRSSLRKQKLVRPPQ [V17Q] please
Data returned: 3.38

Data request: Further, for YSLTCSSTHKRSSLRKVKLVRPPQ [T5C] ?
Data returned: 2.62

Data request: Check YSLTTSSTHKRSSLRKVKCVRPPQ [L19C] too.
Data returned: 3.37

Data request: And for YSLTTSSTHKRSSLRKNKLVRPPQ [V17N] ?
Data returned: 3.39

Data request: Queued: YSLTTSSTHKRSVLRKVKLVRPPQ [S13V]
Data returned: 3.06

Data request: Now try YSLTTSSTHKRSSLRKVKLVCPPQ [R21C] .
Data returned: 2.91

Data request: Consider next the variant YSLCTSSTHKRSSLRKVKLVRPPQ [T4C] in the same way.
Data returned: 2.48

Data request: Here is the next variant: YSLTTSKTHKRSSLRKVKLVRPPQ [S7K]
Data returned: 3.11

Data request: Check YSLTTSSTHKRSSLQKVKLVRPPQ [R15Q] too.
Data returned: 3.35

Data request: Entry YSLTTSSTHKRSSERKVKLVRPPQ [L14E] please
Data returned: 3.82

Data request: Would you mind doing YSKTTSSTHKRSSLRKVKLVRPPQ [L3K] as well?
Data returned: 3.43

Data request: Another variant to look at: YSLTTSSTHKRSSLRKVKLKRPPQ [V20K]
Data returned: 3.7

Data request: Query YSLTTSSFHKRSSLRKVKLVRPPQ [T8F] next
Data returned: 2.63

Data request: Same question for YSLTTSSTHKRSSLRKVKWVRPPQ [L19W] please.
Data returned: 3.15

Data request: Let us now turn to YSLTTSSTHKRSSLRKVKLVRPPI [Q24I]
Data returned: 2.22

Data request: Queued: YSLTTSSTHKRNSLRKVKLVRPPQ [S12N]
Data returned: 3.16

Data request: Same again, this time with YSLTTSSTHKRSSLRAVKLVRPPQ [K16A]
Data returned: 2.93

Reference source: the supplement of paper PMC10567573
